Target: his-labeled human IL-13 (immunogen A) (human) (UniProt P35225)
Assay: cell-based or functional assay
property label: Periostin (pg/mL), MRCS cells + IL-13 5 ng/mL; antibody at 0.11 nM
Report the figure in pg/mL without appending any unit label.

Entry c28A2E11 (mouse-human chimeric IL-13 antibody) (antibody, V domains shown) VH: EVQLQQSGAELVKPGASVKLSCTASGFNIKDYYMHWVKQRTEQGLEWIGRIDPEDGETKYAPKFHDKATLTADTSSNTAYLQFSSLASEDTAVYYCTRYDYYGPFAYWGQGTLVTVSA VL: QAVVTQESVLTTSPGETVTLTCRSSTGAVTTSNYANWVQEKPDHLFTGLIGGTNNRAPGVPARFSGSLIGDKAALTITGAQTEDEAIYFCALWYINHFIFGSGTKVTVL — recorded Periostin (pg/mL), MRCS cells + IL-13 5 ng/mL; antibody at 0.11 nM = 4130
